Recorded drug sensitivity score, one value per entry.
Test system: HS-PSS
Assay: drug sensitivity score (DSS, CellTiter-Glo viability, 72 h) (DSS (dimensionless)); higher = more sensitive; extreme values may be limits of the assay
Endpoint Label: drug sensitivity score

1) Cc1cc(Nc2cc(N3CCN(C)CC3)nc(/C=C/c3ccccc3)n2)n[nH]1 [ENMD-2076] (max concentration tested 10000 nM): 8.13
2) CC1(C)CCC(c2ccc(Cl)cc2)=C(CN2CCN(c3ccc(C(=O)NS(=O)(=O)c4ccc(N[C@H](CCN5CCOCC5)CSc5ccccc5)c(S(=O)(=O)C(F)(F)F)c4)cc3)CC2)C1 [Navitoclax] (max concentration tested 10000 nM): 0
3) COc1cc2ncnc(Oc3cccc(NC(=O)Nc4cc(C(C)(C)C(F)(F)F)on4)c3)c2cc1OC (max concentration tested 10000 nM): 0
4) C[C@@H](Oc1cc(-n2cnc3ccc(CN4CCN(C)CC4)cc32)sc1C(N)=O)c1ccccc1C(F)(F)F (max concentration tested 10000 nM): 14.6
5) CN(C)c1nc(N(C)C)nc(N(C)C)n1 [Altretamine] (max concentration tested 10000 nM): 0
6) Nc1ncnc2c1c(COc1cccc(Cl)c1)nn2C1CCOCC1 (max concentration tested 10000 nM): 0
